The origin of these recorded values is ChEMBL document CHEMBL3393004.

target: Beta-2 adrenergic receptor (Cavia porcellus); assay: Agonist activity at adrenergic beta2 receptor in Hartley guinea pig tracheal ring at basal tone assessed as bronchorelaxation activity
Sequence (Q8K4Z4 whole entry): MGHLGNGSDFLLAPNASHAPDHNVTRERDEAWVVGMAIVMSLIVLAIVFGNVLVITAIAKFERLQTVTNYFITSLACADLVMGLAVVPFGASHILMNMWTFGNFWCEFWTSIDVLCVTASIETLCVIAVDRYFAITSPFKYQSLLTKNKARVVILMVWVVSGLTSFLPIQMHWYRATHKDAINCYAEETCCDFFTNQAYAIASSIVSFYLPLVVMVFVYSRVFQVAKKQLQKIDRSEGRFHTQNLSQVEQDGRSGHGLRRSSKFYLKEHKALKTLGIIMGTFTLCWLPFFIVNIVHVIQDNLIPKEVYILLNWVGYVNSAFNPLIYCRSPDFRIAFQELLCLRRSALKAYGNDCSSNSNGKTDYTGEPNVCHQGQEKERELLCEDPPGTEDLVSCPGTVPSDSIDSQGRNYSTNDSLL
Recorded Kd values for a group of compounds are listed next.

Looking for the measured Kd of CC(C)NCC(O)c1ccc(O)c(O)c1 (configuration not stated) [ISOPROTERENOL] , can you help?
25.1 nM

Would you kindly share the measured Kd for CC(C)C[B-]1(O)OCc2cc([C@@H](O)C[NH2+]C(C)(C)C)ccc2O1 (some centres not stated) ?
5.13 nM

* * *

target: Beta-2 adrenergic receptor (Cavia porcellus); experiment: Agonist activity at adrenergic beta2 receptor in Hartley guinea pig tracheal ring assessed as bronchorelaxation activity against histamine-induced contraction
ENDPOINT_NAME: EC50

Value wanted: EC50 (Beta-2 adrenergic receptor (Cavia porcellus)) of entry CC(C)C[B-]1(O)OCc2cc([C@@H](O)C[NH2+]C(C)(C)C)ccc2O1 (stereo partly specified)
≤ 280 nM
